The values you see were collected from the supplement of paper PMC9732359.

Measured protein stability index of individual entries
experiment: protein stability index of a GFP-peptide fusion (yeast GPS) (PSI 1-4); higher = more stable; sorted into four equal gates, so the index is relative within each strain; details: pdr5∆
Just the number, please, no unit after it.

Example cases with answers are listed next.
{"record_sequence": "SHNFQNAIFQMESEEVP [PCI8]", "test_result": 3.07}
{"record_sequence": "GNGITNTTTRVIPQVEV [SNF5]", "test_result": 2.58}

The sequence identified as ESGEDEAEFSLRELSCC [RRP46] registered its protein stability index at 3.12

The sequence identified as KAGKVAVVVRGRYAGKK [RPL27A] registered its protein stability index at 2.17

The sequence identified as AVCSTATVVSTNHSAAA [PGD1] registered its protein stability index at 3.02

The sequence identified as LPRKEVDDVLGGGWDNV [RPC11] registered its protein stability index at 3.63

The sequence identified as LESKMSEVGDAFIFGLQ [SMC3] registered its protein stability index at 3.28

The sequence identified as YQDIEGGFEDVEEYTWS [RPB2] registered its protein stability index at 3.29

* * *

experiment: protein stability index of a GFP-peptide fusion (yeast GPS) (PSI 1-4); higher = more stable; sorted into four equal gates, so the index is relative within each strain; conditions: doa10∆
Measured protein stability index of individual entries
Just the number, please, no unit after it.

Example cases with answers are listed next.
{"record_sequence": "DLFSNNNYNSRIQLMND [MED1]", "protein stability index": 3}
{"record_sequence": "LDKNLIKLVKQNDELKF [RPC34]", "protein stability index": 1.16}
{"record_sequence": "EWKSNHKKKRSNAAGAD [SRB8]", "protein stability index": 1.33}
{"record_sequence": "EKESDDGLLEYLEDIIG [SMC4]", "protein stability index": 3.47}
{"record_sequence": "QVSNFAPQVYIITKNEN [GAL11]", "protein stability index": 2.96}

The sequence identified as GSSSIIYYDSYIHLAYS [SSN2] registered its protein stability index at 2.56

The sequence identified as SEYDRGVSTFSPEGRLF [PUP2] registered its protein stability index at 3.43

The sequence identified as MSVDIDKKASMIISGSR [ASC1] registered its protein stability index at 2

* * *

experiment: protein stability index of a GFP-peptide fusion (yeast GPS) (PSI 1-4); higher = more stable; sorted into four equal gates, so the index is relative within each strain; settings: doa10∆
Measured protein stability index of individual entries
Just the number, please, no unit after it.

Example cases with answers are listed next.
{"record_sequence": "VLKKKNIQKKQPAKEKG [RRP6]", "protein stability index": 3}
{"record_sequence": "LGGDSDEANIEIDPLTG [BRN1]", "protein stability index": 3.05}
{"record_sequence": "EIIPLQDYYIIGANIYQ [MED6]", "protein stability index": 2.97}

The sequence identified as SKSESDSQIVTPGELVT [RRP4] registered its protein stability index at 3.07

The sequence identified as KKIIKCDEHMGLSLAGL [PRE5] registered its protein stability index at 2.94

The sequence identified as VRNLQGIQEVVHNTNSF [NUT1] registered its protein stability index at 2.98

The sequence identified as SVDESARIKDAFITQLE [YJL039C/NUP192] registered its protein stability index at 3.03

The sequence identified as SNVFGSNNSTTNTFGSN [YJL041W/NSP1] registered its protein stability index at 3.08
